# SYSTEM NAME: hASIC1a (Homo sapiens)
# Sequence (P78348 whole entry): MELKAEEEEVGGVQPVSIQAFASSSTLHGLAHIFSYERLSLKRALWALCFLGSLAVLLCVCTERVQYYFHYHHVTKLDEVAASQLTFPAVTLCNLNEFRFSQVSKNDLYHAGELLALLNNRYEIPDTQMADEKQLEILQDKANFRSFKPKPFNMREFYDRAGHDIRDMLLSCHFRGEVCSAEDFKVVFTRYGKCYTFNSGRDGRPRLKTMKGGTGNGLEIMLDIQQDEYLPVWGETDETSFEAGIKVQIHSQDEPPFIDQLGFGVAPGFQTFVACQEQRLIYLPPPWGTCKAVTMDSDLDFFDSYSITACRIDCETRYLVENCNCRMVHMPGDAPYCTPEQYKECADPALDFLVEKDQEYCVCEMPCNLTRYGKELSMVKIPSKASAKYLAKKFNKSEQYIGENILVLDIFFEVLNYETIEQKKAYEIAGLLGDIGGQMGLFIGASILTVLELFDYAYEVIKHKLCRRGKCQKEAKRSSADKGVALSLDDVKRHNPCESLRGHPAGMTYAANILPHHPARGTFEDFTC
# TEST METHOD NOTES: SyncroPatch 384i APC, CHO hASIC1a, puff / stacked puff application
# Assay type: cell-based
# Parameters: host or cells: CHO (tetracycline-inducible)
# TEST PARAMETERS: 4X multi-hole chip, Stacked Puff, pH 6.5
ATTRIBUTE MEASURED: IC50 (nM)
Response body: numeric value in nM, unit text excluded.

Please look up its IC50: NC(=NCc1ccccc1)NC(=O)c1nc(Cl)c(N)nc1N 2200

* * *

# SYSTEM NAME: hASIC1a (Homo sapiens)
# TEST METHOD NOTES: cell-based
# Parameters: host or cells: CHO (tetracycline-inducible)
# TEST PARAMETERS: IC50 potency, pH 6.5 agonist, 2 min pre-incubation, QPatch 48 single hole
# Procedure: CHO hASIC1a cells were cultured according to vendor instructions (B-SYS GmbH) and HEK cells using standard in-house methods. […] Cell capture, sealing and whole-cell access was achieved using optimized QPatch protocols before currents were recorded using a holding potential of −60 mV. […]
Bridges are numbered along the chain shown (N, C = ends). Where no end group is shown, it is not given here.
ATTRIBUTE MEASURED: pIC50
# reply with the number alone; pIC50 is -log10 of concentration in mol/L

Please look up its pIC50: LKCYQHGKVVTCHRDMKFCYHNIGMPFRNLKLILQGCSSSCSETENNKCCSTDRCNK (disulfide 3-19, 12-37, 41-49, 50-55) [Mambalgin-3] 6.80
